molecular target: CYP2C19 (Homo sapiens, UniProt P33261)
Sequence (P33261 whole entry): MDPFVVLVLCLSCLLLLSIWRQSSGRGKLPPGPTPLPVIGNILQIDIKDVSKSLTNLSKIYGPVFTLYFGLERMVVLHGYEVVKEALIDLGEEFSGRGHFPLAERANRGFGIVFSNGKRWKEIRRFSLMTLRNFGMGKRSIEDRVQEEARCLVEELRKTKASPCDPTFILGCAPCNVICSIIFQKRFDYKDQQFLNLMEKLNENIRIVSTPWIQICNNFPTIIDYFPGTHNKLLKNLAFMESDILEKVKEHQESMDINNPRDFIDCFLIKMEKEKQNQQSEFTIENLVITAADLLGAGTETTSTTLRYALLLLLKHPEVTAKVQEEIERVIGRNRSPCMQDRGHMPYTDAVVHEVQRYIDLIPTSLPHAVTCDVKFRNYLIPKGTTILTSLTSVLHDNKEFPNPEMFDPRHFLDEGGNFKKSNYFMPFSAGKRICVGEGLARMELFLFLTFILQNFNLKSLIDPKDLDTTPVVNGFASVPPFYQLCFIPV
readout_name: Ki
Just so you know, I need the unit written after the number.

Incoming: Reported Ki for CYP2C19 (Homo sapiens, UniProt P33261), given N#C[C@H](C[C@@H]1CCCNC1=O)NC(=O)[C@H](CC1CC1)NC(=O)c1cc2cccc(Cl)c2[nH]1 [Pomotrelvir, pomotrelvir] ?
Outgoing: 27.3 µM

* * *

experiment: Clinical DDI cohort: midazolam with pomotrelvir 1050 mg b.i.d.; conditions: both, human, plasma, oral, 1 mg
readout_name: Cmax (ng/mL)
Numbers only here, please. The scale is ng/mL.

Incoming: Cmax lookup needed for Cc1ncc2n1-c1ccc(Cl)cc1C(c1ccccc1F)=NC2 [Midazolam, midazolam, reference compound] , thanks.
Outgoing: 4.06

* * *

assay: Aqueous phase solubility; format: physicochemical; conditions: pH 6.71, aqueous buffer
readout_name: solubility (µg/mL)
Kindly answer with a numeric value in µg/mL, unit omitted.

Incoming: GET /values?readout=solubility&item= N#C[C@H](C[C@@H]1CCCNC1=O)NC(=O)[C@H](CC1CC1)NC(=O)c1cc2cccc(Cl)c2[nH]1
Outgoing: 10

* * *

assay: Human liver microsomal protein binding; assay type: in vitro ADME; conditions: human liver microsomes
readout_name: fraction unbound
Output: the number by itself.

Incoming: Recorded fraction unbound of N#C[C@H](C[C@@H]1CCCNC1=O)NC(=O)[C@H](CC1CC1)NC(=O)c1cc2cccc(Cl)c2[nH]1 [Pomotrelvir, pomotrelvir] , please.
Outgoing: 0.85

* * *

test: Human plasma protein binding; type: in vitro ADME; details: human, human plasma
readout_name: fraction unbound
// no unit string in output, number only

Incoming: Entry N#C[C@H](C[C@@H]1CCCNC1=O)NC(=O)[C@H](CC1CC1)NC(=O)c1cc2cccc(Cl)c2[nH]1 has what fraction unbound?
Outgoing: 0.044

* * *

biological target: CYP3A4 (Homo sapiens, UniProt P08684)
Sequence (P08684 whole entry): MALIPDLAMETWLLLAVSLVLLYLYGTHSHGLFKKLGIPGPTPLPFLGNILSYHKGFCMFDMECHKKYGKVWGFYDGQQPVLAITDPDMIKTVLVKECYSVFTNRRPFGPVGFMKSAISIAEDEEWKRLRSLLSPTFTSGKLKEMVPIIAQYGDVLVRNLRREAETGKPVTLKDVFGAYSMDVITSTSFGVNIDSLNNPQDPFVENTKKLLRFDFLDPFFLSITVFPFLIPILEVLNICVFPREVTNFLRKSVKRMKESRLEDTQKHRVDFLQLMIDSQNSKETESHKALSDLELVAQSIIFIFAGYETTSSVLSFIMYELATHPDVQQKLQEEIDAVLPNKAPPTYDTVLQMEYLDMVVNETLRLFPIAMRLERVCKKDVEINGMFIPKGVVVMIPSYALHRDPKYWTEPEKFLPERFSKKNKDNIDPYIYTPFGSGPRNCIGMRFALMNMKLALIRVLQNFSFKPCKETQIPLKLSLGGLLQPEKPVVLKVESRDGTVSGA
readout_name: pKi
FYI, pKi means -log10 of a concentration in mol per litre.

Incoming: What measured pKi is associated with N#C[C@H](C[C@@H]1CCCNC1=O)NC(=O)[C@H](CC1CC1)NC(=O)c1cc2cccc(Cl)c2[nH]1 on CYP3A4 (Homo sapiens, UniProt P08684)?
Outgoing: 4.46

* * *

biological target: CYP1A2 (Homo sapiens, UniProt P05177)
Sequence (P05177 whole entry): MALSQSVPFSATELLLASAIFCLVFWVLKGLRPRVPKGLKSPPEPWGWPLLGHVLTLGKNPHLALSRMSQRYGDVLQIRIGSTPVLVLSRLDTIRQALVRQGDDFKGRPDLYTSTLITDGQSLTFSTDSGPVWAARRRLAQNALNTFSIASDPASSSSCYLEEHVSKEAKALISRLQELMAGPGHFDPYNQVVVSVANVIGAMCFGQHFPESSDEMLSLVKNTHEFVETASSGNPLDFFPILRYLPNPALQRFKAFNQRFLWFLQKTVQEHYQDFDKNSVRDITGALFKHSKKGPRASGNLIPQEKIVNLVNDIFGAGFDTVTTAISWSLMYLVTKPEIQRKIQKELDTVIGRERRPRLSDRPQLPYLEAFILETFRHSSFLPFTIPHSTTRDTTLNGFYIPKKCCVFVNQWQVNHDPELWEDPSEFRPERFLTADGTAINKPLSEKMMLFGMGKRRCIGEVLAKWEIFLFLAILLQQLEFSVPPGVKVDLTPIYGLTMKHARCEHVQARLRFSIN
readout_name: Ki (µM)
Give just the number in µM; leave the unit off.

Incoming: I have this compound here, N#C[C@H](C[C@@H]1CCCNC1=O)NC(=O)[C@H](CC1CC1)NC(=O)c1cc2cccc(Cl)c2[nH]1 , and I need its recorded Ki.
Outgoing: 9.04

* * *

test system: BCRP; test: MDCK‐BCRP apparent permeability; format: in vitro ADME, canine; settings: dog
readout_name: Papp (×10⁻⁶ cm/s)
Number in ×10⁻⁶ cm/s, nothing else.

Incoming: If you can, please state the reported Papp value of N#C[C@H](C[C@@H]1CCCNC1=O)NC(=O)[C@H](CC1CC1)NC(=O)c1cc2cccc(Cl)c2[nH]1 .
Outgoing: 1.01

# credit: paper PMC10583239
